Test system: A549
Experiment: Antiproliferative activity against human A549 cells harboring KRAS G12S mutant assessed as inhibition of cell viability after 96 hrs by Celltiter-Glo assay
Format: functional, cell-based
Conditions: A549, 96 h
pIC50: −log10 of the molar value.
The following molecules are shown together with reported pIC50 values.
measuredParameter: pIC50

[[record]]
chemicalsmiles = "CONS(=O)(=O)Nc1cccc(Cc2c(C)c3ccc(OCCOc4no[n+]([O-])c4S(=O)(=O)c4ccccc4)cc3oc2=O)c1F"
modifier = "="
measurement = 5.43

[[record]]
chemicalsmiles = "CNS(=O)(=O)Nc1cccc(Cc2c(C)c3ccc(OCCCOc4no[n+]([O-])c4S(=O)(=O)c4ccccc4)cc3oc2=O)c1F"
modifier = "="
measurement = 5.87

[[record]]
chemicalsmiles = "CNS(=O)(=O)Nc1cccc(Cc2c(C)c3ccc(OCCCCO)cc3oc2=O)c1F"
modifier = "<"
measurement = 5.30

[[record]]
chemicalsmiles = "CC(=O)Nc1cccc(-n2c(=O)n(C3CC3)c(=O)c3c(Nc4ccc(I)cc4F)n(C)c(=O)c(C)c32)c1"
modifier = "="
measurement = 6.34

[[record]]
chemicalsmiles = "CNS(=O)(=O)Nc1cccc(Cc2c(C)c3ccc(OCCCO)cc3oc2=O)c1F"
modifier = "<"
measurement = 5.30

[[record]]
chemicalsmiles = "CCNS(=O)(=O)Nc1cccc(Cc2c(C)c3ccc(OCCO)cc3oc2=O)c1F"
modifier = "<"
measurement = 5.30

[[record]]
chemicalsmiles = "CNS(=O)(=O)Nc1cccc(Cc2c(C)c3ccc(OCCO)cc3oc2=O)c1F"
modifier = "<"
measurement = 5.30

[[record]]
chemicalsmiles = "CCNS(=O)(=O)Nc1cccc(Cc2c(C)c3ccc(OCCOc4no[n+]([O-])c4S(=O)(=O)c4ccccc4)cc3oc2=O)c1F"
modifier = "="
measurement = 5.59

[[record]]
chemicalsmiles = "COCCNS(=O)(=O)Nc1cccc(Cc2c(C)c3ccc(OCCO)cc3oc2=O)c1F"
modifier = "<"
measurement = 5.30

[[record]]
chemicalsmiles = "Cc1c(Cc2cccc(NS(=O)(=O)NC(C)C)c2F)c(=O)oc2cc(OCCO)ccc12"
modifier = "<"
measurement = 5.30

[[record]]
chemicalsmiles = "Cc1c(Cc2cccc(NS(=O)(=O)NCC(F)(F)F)c2F)c(=O)oc2cc(OCCOc3no[n+]([O-])c3S(=O)(=O)c3ccccc3)ccc12"
modifier = "="
measurement = 5.60

[[record]]
chemicalsmiles = "CNS(=O)(=O)Nc1cccc(Cc2c(C)c3ccc(OCCOc4no[n+]([O-])c4S(=O)(=O)c4ccccc4)cc3oc2=O)c1F"
modifier = "="
measurement = 5.96

[[record]]
chemicalsmiles = "Cc1c(Cc2cccc(NS(=O)(=O)NCCC#N)c2F)c(=O)oc2cc(OCCO)ccc12"
modifier = "<"
measurement = 5.30

[[record]]
chemicalsmiles = "COCCNS(=O)(=O)Nc1cccc(Cc2c(C)c3ccc(OCCOc4no[n+]([O-])c4S(=O)(=O)c4ccccc4)cc3oc2=O)c1F"
modifier = "="
measurement = 5.64

[[record]]
chemicalsmiles = "CNS(=O)(=O)Nc1nccc(Cc2c(C)c3ccc(Oc4ncccn4)cc3oc2=O)c1F"
modifier = "="
measurement = 5.91

[[record]]
chemicalsmiles = "Cc1c(Cc2cccc(NS(=O)(=O)NC(C)C)c2F)c(=O)oc2cc(OCCOc3no[n+]([O-])c3S(=O)(=O)c3ccccc3)ccc12"
modifier = "="
measurement = 5.52

[[record]]
chemicalsmiles = "CCOC(=O)N1CCN(/[N+]([O-])=N/Oc2ccc([N+](=O)[O-])cc2[N+](=O)[O-])CC1"
modifier = "="
measurement = 6.16


====

Recorded pIC50 for the following compounds
System: Vero
Experiment: Cytotoxicity against African green monkey Vero cells assessed as reduction in cell viability after 96 hrs by Celltiter-Glo assay
Type: cell-based
Details: Chlorocebus sabaeus
pIC50: −log10 of the molar value.
measuredParameter: pIC50

[[record]]
chemicalsmiles = "CNS(=O)(=O)Nc1cccc(Cc2c(C)c3ccc(OCCCOc4no[n+]([O-])c4S(=O)(=O)c4ccccc4)cc3oc2=O)c1F"
subjectoftest = "Vero"
measuredparameter = "pIC50"
modifier = "="
measurement = 4.68

[[record]]
chemicalsmiles = "CNS(=O)(=O)Nc1cccc(Cc2c(C)c3ccc(OCCOc4no[n+]([O-])c4S(=O)(=O)c4ccccc4)cc3oc2=O)c1F"
subjectoftest = "Vero"
measuredparameter = "pIC50"
modifier = "="
measurement = 5.36

[[record]]
chemicalsmiles = "CNS(=O)(=O)Nc1nccc(Cc2c(C)c3ccc(Oc4ncccn4)cc3oc2=O)c1F"
subjectoftest = "Vero"
measuredparameter = "pIC50"
modifier = "<"
measurement = 4.30

[[record]]
chemicalsmiles = "CCOC(=O)N1CCN(/[N+]([O-])=N/Oc2ccc([N+](=O)[O-])cc2[N+](=O)[O-])CC1"
subjectoftest = "Vero"
measuredparameter = "pIC50"
modifier = "="
measurement = 5.94

[[record]]
chemicalsmiles = "CNS(=O)(=O)Nc1cccc(Cc2c(C)c3ccc(OCCCCOc4no[n+]([O-])c4S(=O)(=O)c4ccccc4)cc3oc2=O)c1F"
subjectoftest = "Vero"
measuredparameter = "pIC50"
modifier = "="
measurement = 5.53


====

Test system: A549
Assay: Antiproliferative activity against human A549 cells harboring KRAS G12S mutant assessed as inhibition of cell viability after 96 hrs by Celltiter-Glo assay
Assay type: functional, cell-based
Conditions: A549, 96 h
pIC50: −log10 of the molar value.
A collection of compounds and their measured pIC50
measuredParameter: pIC50

[[record]]
chemicalsmiles = "Cc1c(Cc2cccc(NS(=O)(=O)NCCC#N)c2F)c(=O)oc2cc(OCCOc3no[n+]([O-])c3S(=O)(=O)c3ccccc3)ccc12"
subjectoftest = "A549"
measuredparameter = "pIC50"
modifier = "="
measurement = 5.58

[[record]]
chemicalsmiles = "CNS(=O)(=O)Nc1cccc(Cc2c(C)c3ccc(OCCCCOc4no[n+]([O-])c4S(=O)(=O)c4ccccc4)cc3oc2=O)c1F"
subjectoftest = "A549"
measuredparameter = "pIC50"
modifier = "="
measurement = 5.46

[[record]]
chemicalsmiles = "Cc1c(Cc2cccc(NS(=O)(=O)NCC(F)(F)F)c2F)c(=O)oc2cc(OCCO)ccc12"
subjectoftest = "A549"
measuredparameter = "pIC50"
modifier = "<"
measurement = 5.30


====

Assay: Prodrug release in human HCT-116 cells assessed as increase in intracellular NO level at 100 uM measured after 2 hr by DAF-FM DA reagent based laser confocal scanning microscopy
Conditions: hct-116, 2 h
measuredParameter: Drug metabolism

[[record]]
compound = "Cc1c(Cc2cccc(NS(=O)(=O)NCCC#N)c2F)c(=O)oc2cc(OCCOc3no[n+]([O-])c3S(=O)(=O)c3ccccc3)ccc12"
measurement = "Metabolite_Detected"

[[record]]
compound = "CNS(=O)(=O)Nc1nccc(Cc2c(C)c3ccc(Oc4ncccn4)cc3oc2=O)c1F [AVUTOMETINIB]"
measurement = "Metabolite_Notdetected"

[[record]]
compound = "CCNS(=O)(=O)Nc1cccc(Cc2c(C)c3ccc(OCCOc4no[n+]([O-])c4S(=O)(=O)c4ccccc4)cc3oc2=O)c1F"
measurement = "Metabolite_Detected"

[[record]]
compound = "CCNS(=O)(=O)Nc1cccc(Cc2c(C)c3ccc(OCCO)cc3oc2=O)c1F"
measurement = "Metabolite_Notdetected"

[[record]]
compound = "Cc1c(Cc2cccc(NS(=O)(=O)NC(C)C)c2F)c(=O)oc2cc(OCCOc3no[n+]([O-])c3S(=O)(=O)c3ccccc3)ccc12"
measurement = "Metabolite_Detected"

[[record]]
compound = "Cc1c(Cc2cccc(NS(=O)(=O)NC(C)C)c2F)c(=O)oc2cc(OCCO)ccc12"
measurement = "Metabolite_Notdetected"

[[record]]
compound = "COCCNS(=O)(=O)Nc1cccc(Cc2c(C)c3ccc(OCCO)cc3oc2=O)c1F"
measurement = "Metabolite_Notdetected"

[[record]]
compound = "CCOC(=O)N1CCN(/[N+]([O-])=N/Oc2ccc([N+](=O)[O-])cc2[N+](=O)[O-])CC1"
measurement = "Metabolite_Detected"

[[record]]
compound = "Cc1c(Cc2cccc(NS(=O)(=O)NCC(F)(F)F)c2F)c(=O)oc2cc(OCCO)ccc12"
measurement = "Metabolite_Notdetected"

[[record]]
compound = "CONS(=O)(=O)Nc1cccc(Cc2c(C)c3ccc(OCCO)cc3oc2=O)c1F"
measurement = "Metabolite_Notdetected"

[[record]]
compound = "COCCNS(=O)(=O)Nc1cccc(Cc2c(C)c3ccc(OCCOc4no[n+]([O-])c4S(=O)(=O)c4ccccc4)cc3oc2=O)c1F"
measurement = "Metabolite_Detected"

[[record]]
compound = "CNS(=O)(=O)Nc1cccc(Cc2c(C)c3ccc(OCCOc4no[n+]([O-])c4S(=O)(=O)c4ccccc4)cc3oc2=O)c1F"
measurement = "Metabolite_Detected"

[[record]]
compound = "CNS(=O)(=O)Nc1cccc(Cc2c(C)c3ccc(OCCCOc4no[n+]([O-])c4S(=O)(=O)c4ccccc4)cc3oc2=O)c1F"
measurement = "Metabolite_Detected"

[[record]]
compound = "CNS(=O)(=O)Nc1cccc(Cc2c(C)c3ccc(OCCCO)cc3oc2=O)c1F"
measurement = "Metabolite_Notdetected"

[[record]]
compound = "Cc1c(Cc2cccc(NS(=O)(=O)NCC(F)(F)F)c2F)c(=O)oc2cc(OCCOc3no[n+]([O-])c3S(=O)(=O)c3ccccc3)ccc12"
measurement = "Metabolite_Detected"

[[record]]
compound = "CNS(=O)(=O)Nc1cccc(Cc2c(C)c3ccc(OCCCCOc4no[n+]([O-])c4S(=O)(=O)c4ccccc4)cc3oc2=O)c1F"
measurement = "Metabolite_Detected"

[[record]]
compound = "CONS(=O)(=O)Nc1cccc(Cc2c(C)c3ccc(OCCOc4no[n+]([O-])c4S(=O)(=O)c4ccccc4)cc3oc2=O)c1F"
measurement = "Metabolite_Detected"

[[record]]
compound = "Cc1c(Cc2cccc(NS(=O)(=O)NCCC#N)c2F)c(=O)oc2cc(OCCO)ccc12"
measurement = "Metabolite_Notdetected"

[[record]]
compound = "CNS(=O)(=O)Nc1cccc(Cc2c(C)c3ccc(OCCO)cc3oc2=O)c1F"
measurement = "Metabolite_Notdetected"

[[record]]
compound = "CNS(=O)(=O)Nc1cccc(Cc2c(C)c3ccc(OCCCCO)cc3oc2=O)c1F"
measurement = "Metabolite_Notdetected"


// data source = ChEMBL document CHEMBL4680253
